System: HepG2
Experiment: cytotoxicity call (relative viability < 0.9)
Conditions: 10 µM
Screen size: about 39,000 compounds; about 3,300 (8.5%) were called active. The entries come from a sample that favours actives as a whole.
Pick from active, inactive when you respond.

In [3]: df
Out[3]:
                           molecular_string  qualitative_label
0  C[C@@H]1CCCCO[C@@H](CN(C)C(=O)Nc2cccc3ccccc23)[C@@H](C)CN([C@@H](C)CO)C(=O)c2cc(NC(=O)NC3CCCCC3)ccc2O1           inactive
1  C=C(C)[C@@H]1CC[C@]2(COC(C)=O)CC[C@]3(C)[C@H](CC[C@@H]4[C@@]5(C)CC[C@H](OC(C)=O)C(C)(C)[C@@H]5CC[C@]43C)[C@@H]12           inactive
2  COc1ccncc1-c1ccccc1CN(C(=O)c1ccc(-c2ccc(C#N)cc2)o1)c1ccc(N2CCNCC2)cc1             active
3  C[C@H](O)C#Cc1ccc2c(c1)O[C@@H](CN(C)C(=O)C1CCCCC1)[C@@H](C)CN([C@H](C)CO)S2(=O)=O           inactive
4  C[C@H]1CN([C@@H](C)CO)C(=O)Cc2cc(NC(=O)CCCCCC(=O)Nc3ccccc3N)ccc2O[C@@H]1CN(C)C(=O)Nc1cccc2ccccc12           inactive

Field: next molecule
Recorded test call requested for Cc1noc(C)c1NC(=O)N(C)C[C@H]1OCCCC[C@@H](C)Oc2ccc(NC(=O)Nc3ccccc3)cc2C(=O)N([C@@H](C)CO)C[C@H]1C inactive

* * *

System: HepG2
Experiment: cytotoxicity call (relative viability < 0.9)
Conditions: 10 µM
The whole screen tested about 39,000 compounds, of which about 3,300 (8.5%) were called active. This is one part of a sample in which actives are shown more often than they occur.
Pick from active, inactive when you respond.

In [3]: df
Out[3]:
                           molecular_string  qualitative_label
0  C[C@@H]1CN([C@H](C)CO)C(=O)c2cccc(NC(=O)c3ccncc3)c2O[C@@H]1CN(C)Cc1ccc2c(c1)OCO2           inactive
1  C[C@@H]1CN([C@@H](C)CO)C(=O)Cc2cc(NS(=O)(=O)c3ccccc3)ccc2O[C@@H]1CN(C)S(=O)(=O)c1cn(C)cn1           inactive
2  C[C@@H]1CN([C@@H](C)CO)C(=O)c2cc(NC(=O)Nc3ccc4c(c3)OCO4)ccc2O[C@@H](C)CCCCO[C@@H]1CN(C)Cc1ccc(C(F)(F)F)cc1           inactive
3  C[C@H](CO)N1C[C@H](C)[C@@H](CN(C)C(=O)Cc2cccnc2)Oc2cc(-c3cncnc3)ccc2S1(=O)=O           inactive
4  C[C@@H]1CCCCO[C@H](CN(C)Cc2ccc(C(F)(F)F)cc2)[C@@H](C)CN([C@@H](C)CO)C(=O)c2cc(NC(=O)Nc3ccc4c(c3)OCO4)ccc2O1             active
5  C[C@@H]1CN([C@H](C)CO)C(=O)c2cc(NC(=O)Nc3ccccc3)ccc2O[C@@H]1CN(C)S(=O)(=O)c1cn(C)cn1           inactive
6  C[C@@H]1CN([C@H](C)CO)C(=O)c2cc(NC(=O)Nc3ccccc3)ccc2O[C@H]1CN(C)S(=O)(=O)c1cn(C)cn1             active
7  C[C@H](CO)N1C[C@H](C)[C@H](CN(C)C(=O)Nc2ccccc2)OCCCC[C@H](C)Oc2ccc(NC(=O)c3ccccc3)cc2C1=O           inactive

Recorded test call requested for C[C@@H]1CN([C@@H](C)CO)C(=O)c2cc(NC(=O)Nc3ccccc3)ccc2O[C@H]1CN(C)S(=O)(=O)c1cn(C)cn1 inactive

Recorded test call requested for C[C@@H]1CN([C@@H](C)CO)C(=O)c2cc(NC(=O)Nc3ccc4c(c3)OCO4)ccc2O[C@@H](C)CCCCO[C@H]1CN(C)Cc1ccc(C(F)(F)F)cc1 inactive

Recorded test call requested for C[C@H]1CN([C@@H](C)CO)C(=O)Cc2cc(NS(=O)(=O)c3ccccc3)ccc2O[C@@H]1CN(C)S(=O)(=O)c1cn(C)cn1 inactive

Recorded test call requested for C[C@@H]1CCCCO[C@H](CN(C)Cc2ccc(C(F)(F)F)cc2)[C@H](C)CN([C@H](C)CO)C(=O)c2cc(NC(=O)Nc3ccc4c(c3)OCO4)ccc2O1 active

Recorded test call requested for C[C@@H]1CN([C@H](C)CO)C(=O)Cc2cc(NS(=O)(=O)c3ccccc3)ccc2O[C@H]1CN(C)S(=O)(=O)c1cn(C)cn1 active

Recorded test call requested for Cc1cc(=O)n(CCO)c(=O)[nH]1 inactive

* * *

Test system: HepG2
Assay: cytotoxicity call (relative viability < 0.9)
Details: 10 µM
About 3,300 (8.5%) of roughly 39,000 compounds were called active. The full list was thinned out, with actives kept by preference.
Pick from T (active), F (inactive) when you respond.

Here's what some known entries look like.
                           molecular_string  qualitative_label
0  C[C@H]1CN([C@@H](C)CO)C(=O)c2cc(C#CCc3ccccc3)cnc2O[C@H]1CN(C)C(=O)Cc1cccnc1                  F
1  C[C@@H]1CN([C@@H](C)CO)S(=O)(=O)c2ccc(C3=CCCC3)cc2O[C@@H]1CN(C)C(=O)c1cnccn1                  F
2  C[C@@H]1CN([C@@H](C)CO)C(=O)c2cc(NC(=O)Nc3ccc(C(F)(F)F)cc3)ccc2O[C@@H](C)CCCCO[C@@H]1CN(C)Cc1ccncc1                  T

Recorded test call requested for COCCNC(=O)C[C@@H]1CC[C@@H]2[C@H](COc3ccc(NS(=O)(=O)c4ccc(Cl)cc4)cc3C(=O)N2C)O1 F

Recorded test call requested for C[C@@H]1CCCCO[C@@H](CN(C)C(=O)c2ccncc2)[C@H](C)CN([C@H](C)CO)C(=O)c2cc(NS(=O)(=O)c3ccc(Cl)cc3)ccc2O1 F

Recorded test call requested for C[C@@H]1CCCCO[C@@H](CN(C)Cc2ccncc2)[C@@H](C)CN([C@H](C)CO)C(=O)c2cc(NC(=O)Nc3ccc(C(F)(F)F)cc3)ccc2O1 T

Recorded test call requested for CC(=O)N1[C@@H](CO)[C@H](c2ccccc2)C12CN(C(=O)CN1CCOCC1)C2 F

* * *

System: HepG2
Assay: cytotoxicity call (relative viability < 0.9)
Conditions: 10 µM
Among all 39,000 compounds or so, about 3,300 (8.5%) were called active. This is one part of a sample in which actives are shown more often than they occur.
Pick from active, inactive when you respond.

Here's what some known entries look like.
>>> df
                           molecular_string  qualitative_label
0  CO[C@H]1CN(C)C(=O)c2cc(NS(=O)(=O)CC(F)(F)F)ccc2OC[C@@H](C)N(Cc2ccccn2)C[C@@H]1C           inactive
1  CC(=O)O[C@H]1[C@H](Oc2cc(O)cc(O)c2C(=O)c2cc(O)cc(O)c2)O[C@H](CO)[C@@H](OC(=O)c2ccccc2)[C@@H]1O           inactive

Field: next compound
Recorded test call requested for O=C(O[C@H]1[C@H](O)[C@@H](CO)O[C@H](c2c(O)cc(O)c(C(=O)c3ccc(O)cc3)c2O)[C@H]1OC(=O)c1cc(O)c(O)c(O)c1)c1cc(O)c(O)c(O)c1 active

* * *

Tested on: HepG2
Assay: cytotoxicity call (relative viability < 0.9)
Settings: 10 µM
Screen size: about 39,000 compounds; about 3,300 (8.5%) were called active. Shown is part of a subset that was picked to be rich in actives.
measurement_label: cytotoxicity call

                           molecular_string  measurement_label    result
0  C[C@H](CO)N1C[C@H](C)[C@H](CN(C)Cc2ccc(Oc3ccccc3)cc2)Oc2ccc(NS(=O)(=O)c3ccc(F)cc3)cc2CC1=O  cytotoxicity call    active
1  C[C@@H]1CN([C@H](C)CO)C(=O)Cc2cc(NS(=O)(=O)c3ccc(F)cc3)ccc2O[C@H]1CN(C)Cc1ccc(Oc2ccccc2)cc1  cytotoxicity call    active
2  COc1ccc([Si](C)(C)[C@@H]2[C@@H](CCO)O[C@]3(C(=O)N(Cc4ccccc4)c4ccc(N5CCCCC5=O)cc43)[C@H]2C)cc1  cytotoxicity call  inactive
3  C[C@H]1CN([C@@H](C)CO)C(=O)Cc2cc(NS(=O)(=O)c3ccc(F)cc3)ccc2O[C@H]1CN(C)Cc1ccc(Oc2ccccc2)cc1  cytotoxicity call    active
4  COc1ccc([Si](C)(C)[C@H]2[C@H](CCO)O[C@@]3(C(=O)N(Cc4ccccc4)c4ccc(N5CCCCC5=O)cc43)[C@@H]2C)cc1  cytotoxicity call  inactive

Data request, read-out cytotoxicity call, for COc1ccc([Si](C)(C)[C@H]2[C@H](CCO)O[C@@]3(C(=O)N(Cc4ccc(N5CCCCC5=O)cc4)c4ccccc43)[C@@H]2C)cc1 inactive
